Collected pIC50 values appear next to each entry.
target: Recombinant ROCK1 (amino acids 1-477) (Homo sapiens); construct: Recombinant ROCK1 (amino acids 1-477); assay: ROCK inhibition assay, LANCE Ultra TR-FRET kinase assay; assay type: biochemical; settings: at Km of ATP (table title); method: 1 mM ATP, 50 nM ULight-CREBtide substrate, 1 hour, room temperature
Sequence (Q13464 1-477): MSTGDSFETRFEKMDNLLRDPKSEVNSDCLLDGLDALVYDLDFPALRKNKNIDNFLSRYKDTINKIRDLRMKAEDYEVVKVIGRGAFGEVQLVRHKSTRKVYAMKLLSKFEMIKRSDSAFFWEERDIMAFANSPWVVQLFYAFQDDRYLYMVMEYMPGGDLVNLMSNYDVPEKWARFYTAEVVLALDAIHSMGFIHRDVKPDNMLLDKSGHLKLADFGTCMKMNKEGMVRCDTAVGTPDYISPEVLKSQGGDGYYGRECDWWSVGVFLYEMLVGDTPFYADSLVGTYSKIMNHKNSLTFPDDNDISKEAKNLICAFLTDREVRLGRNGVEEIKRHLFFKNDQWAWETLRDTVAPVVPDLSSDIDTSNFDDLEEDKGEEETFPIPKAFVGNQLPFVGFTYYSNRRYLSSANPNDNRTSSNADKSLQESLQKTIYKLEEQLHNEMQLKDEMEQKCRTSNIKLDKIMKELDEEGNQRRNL
pIC50: −log10 of the molar value.
recorded-endpoint: pIC50

# compound, result
records = [
    ("O=C(c1cn(CC2CC(O)C2)c2cc(-c3cn[nH]c3F)ncc12)C1COc2ccc(Cl)cc2C1 (centres unmarked)", "6.30 to 7.29"),
    ("CC(C)(O)Cn1cc(C(=O)[C@@H]2COc3ccc(Cl)cc3C2)c2cnc(-c3cn[nH]c3F)cc21", "> 8.00"),
    ("C[C@H](O)Cn1cc(C(=O)[C@@H]2COc3ccc(Cl)cc3C2)c2cnc(-c3cn[nH]c3Cl)cc21 [Compound 1-12]", "7.30 to 7.96"),
    ("C[C@H](O)Cn1cc(C(=O)[C@@H]2COc3ccc(Cl)cc3C2)c2cnc(-c3cn[nH]c3Cl)cc21 [Compound 1-9]", "7.30 to 7.96"),
    ("O=C(c1cn(CCO)c2cc(-c3cn[nH]c3)ccc12)C1COc2ccc(F)cc2O1 (centres unmarked)", "7.30 to 7.96"),
]

----------
target: Recombinant ROCK2 (amino acids 5-554) (Homo sapiens, UniProt O75116); construct: ROCK2 (amino acids 5-554); assay: ROCK inhibition assay, LANCE Ultra TR-FRET kinase assay; type: biochemical; conditions: at Km of ATP (table title); method: 1 mM ATP, 50 nM ULight-CREBtide substrate, 1 hour, room temperature
Sequence (O75116 5-554): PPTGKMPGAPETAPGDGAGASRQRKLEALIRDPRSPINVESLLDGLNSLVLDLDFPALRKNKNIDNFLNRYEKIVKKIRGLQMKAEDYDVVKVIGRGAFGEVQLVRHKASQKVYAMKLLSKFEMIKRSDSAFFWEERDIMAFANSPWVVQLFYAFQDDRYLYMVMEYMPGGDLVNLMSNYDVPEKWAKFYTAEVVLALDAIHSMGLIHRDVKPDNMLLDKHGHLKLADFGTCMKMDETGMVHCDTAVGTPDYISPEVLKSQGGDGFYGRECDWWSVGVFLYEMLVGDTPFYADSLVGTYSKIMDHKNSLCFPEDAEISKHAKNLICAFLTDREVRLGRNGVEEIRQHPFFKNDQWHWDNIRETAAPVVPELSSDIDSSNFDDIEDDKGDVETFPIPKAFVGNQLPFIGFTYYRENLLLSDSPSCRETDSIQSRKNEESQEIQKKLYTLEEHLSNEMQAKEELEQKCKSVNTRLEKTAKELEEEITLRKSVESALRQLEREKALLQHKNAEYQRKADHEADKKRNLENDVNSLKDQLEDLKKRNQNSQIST
pIC50: −log10 of the molar value.

# compound, pIC50
rows = [
    ("CC(C)(O)Cn1cc(C(=O)[C@@H]2COc3ccc(Cl)cc3C2)c2cnc(-c3c[nH]nc3Cl)cc21 [Compound 1-19]", "> 8.00"),
    ("O=C(c1nn(CCO)c2cc(-c3c[nH]nc3C(F)(F)F)ccc12)C1COc2ccc(F)cc2C1 (centres unmarked)", "6.30 to 7.29"),
    ("CC(O)Cn1cc(C(=O)[C@@H]2COc3ccc(Cl)cc3C2)c2ccc(-c3c[nH]nc3F)cc21 (some centres unmarked)", "> 8.00"),
    ("O=C(c1cn(CCO)c2cc(-c3c[nH]c4ncccc34)ccc12)C1COc2ccccc2O1 (centres unmarked)", "7.30 to 7.96"),
    ("COc1n[nH]cc1-c1cc2c(cn1)c(C(=O)C1COc3ccc(Cl)cc3C1)cn2CCO (centres unmarked)", "< 6.30"),
    ("O=C(c1cn(CCO)c2cc(-c3cn[nH]c3)ccc12)C1COc2cc(F)ccc2O1 (centres unmarked)", "> 8.00"),
    ("COc1ccc2c(c1)CC(C(=O)c1cn(C[C@H](C)O)c3cc(-c4cn[nH]c4Cl)ncc13)CO2 (some centres unmarked)", "> 8.00"),
    ("COCCn1nc(C(=O)[C@@H]2COc3ccccc3O2)c2ccc(-c3cn[nH]c3)cc21", "7.30 to 7.96"),
    ("CC[C@H](O)Cn1cc(C(=O)C2COc3ccc(Cl)cc3C2)c2cnc(-c3cn[nH]c3F)cc21 (some centres unmarked)", "7.30 to 7.96"),
    ("COc1n[nH]cc1-c1ccc2c(C(=O)C3COc4ccc(Cl)cc4C3)nn(CC(C)O)c2c1 (centres unmarked)", "7.30 to 7.96"),
    ("O=C(c1nn(CCO)c2cc(-c3cn[nH]c3)ccc12)C1COc2ccc(F)cc2O1 (centres unmarked)", "> 8.00"),
    ("O=C(c1cn(CCO)c2cc(-c3cn[nH]c3)ccc12)C1COc2ccc(F)cc2O1 (centres unmarked)", "> 8.00"),
    ("COc1n[nH]cc1-c1ccc2c(C(=O)C3COc4ccc(Cl)cc4C3)cn(CCO)c2c1 (racemic)", "7.30 to 7.96"),
    ("O=C(c1cn(CC2CC(O)C2)c2cc(-c3cn[nH]c3Cl)ncc12)C1COc2ccc(Cl)cc2C1 (centres unmarked)", "> 8.00"),
    ("C[C@@H](O)Cn1cc(C(=O)[C@@H]2COc3ccc(F)cc3C2)c2cnc(-c3cn[nH]c3F)nc21 [Compound 1-49]", "> 8.00"),
    ("CC(C)(O)Cn1cc(C(=O)[C@@H]2COc3ccc(Cl)cc3C2)c2cnc(-c3c[nH]nc3Cl)cc21 [Compound 1-32]", "> 8.00"),
    ("O=C(c1cn(CC2CC(O)C2)c2cc(-c3cn[nH]c3F)ncc12)C1COc2ccc(Cl)cc2C1 (centres unmarked)", "7.30 to 7.96"),
]
